B1: CHMP4C (parent)
chain: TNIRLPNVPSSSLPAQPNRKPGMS

Variants of: B1
Test: protein stability index of a GFP-peptide fusion (GPS, HEK-293T) (PSI 1-6); higher = more stable;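 note: lentivirally expressed fusions sorted by FACS into six bins by GFP to DsRed ratio, PSI derived from sequencing read proportions per bin multiplied by bin number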
Details: c terminus: a fixed tail appended
Experimental endpoint: protein stability index
A bare number is all that is needed in reply.

Solved cases (5 shown):
{"Variant id": "T1E", "protein stability index": 3.75}
{"Variant id": "N18Q", "protein stability index": 4.87}
{"Variant id": "T1P", "protein stability index": 4.8}
{"Variant id": "V8D", "protein stability index": 4.54}
{"Variant id": "L13A", "protein stability index": 4.88}

q: # input variant: N2Q ; wanted: its protein stability index
a: 4.27

q: What does the data say about its protein stability index? Entry: A15W
a: 4.01

q: What measured protein stability index goes with P9D ?
a: 4.77

q: Could you tell me which protein stability index is on file for A15P ?
a: 4.71

q: Would you kindly share the measured protein stability index for P6D ?
a: 4.36

q: // protein stability index lookup, key: P21C
a: 4.24
